biological target: GluK3 (Rattus norvegicus, UniProt P42264); test: Radioligand binding at recombinant homomeric GluK3
Sequence (P42264 32-919): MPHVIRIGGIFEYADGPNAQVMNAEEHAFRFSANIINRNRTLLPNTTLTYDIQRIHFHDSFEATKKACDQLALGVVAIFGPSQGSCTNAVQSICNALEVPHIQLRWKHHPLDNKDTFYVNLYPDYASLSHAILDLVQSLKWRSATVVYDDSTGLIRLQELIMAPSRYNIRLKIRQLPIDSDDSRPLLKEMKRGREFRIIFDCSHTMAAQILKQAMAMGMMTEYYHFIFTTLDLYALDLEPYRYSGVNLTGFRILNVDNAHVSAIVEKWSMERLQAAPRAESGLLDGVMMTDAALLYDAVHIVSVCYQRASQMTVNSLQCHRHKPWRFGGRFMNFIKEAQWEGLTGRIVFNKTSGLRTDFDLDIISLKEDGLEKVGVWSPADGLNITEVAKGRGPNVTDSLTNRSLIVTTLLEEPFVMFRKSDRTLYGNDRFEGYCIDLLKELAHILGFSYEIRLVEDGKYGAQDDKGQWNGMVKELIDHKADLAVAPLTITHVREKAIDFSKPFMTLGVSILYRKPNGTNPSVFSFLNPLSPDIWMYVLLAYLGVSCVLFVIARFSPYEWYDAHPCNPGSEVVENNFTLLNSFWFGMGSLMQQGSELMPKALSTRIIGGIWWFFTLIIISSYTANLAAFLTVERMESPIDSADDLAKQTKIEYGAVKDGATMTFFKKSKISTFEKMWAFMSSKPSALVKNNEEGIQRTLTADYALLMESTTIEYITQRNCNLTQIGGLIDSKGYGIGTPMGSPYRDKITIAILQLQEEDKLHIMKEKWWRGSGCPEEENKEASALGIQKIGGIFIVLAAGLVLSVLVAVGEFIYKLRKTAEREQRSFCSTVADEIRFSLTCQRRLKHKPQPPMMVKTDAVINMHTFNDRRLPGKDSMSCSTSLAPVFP
Listing of entries alongside the reported pKi.
# pKi: negative log10 of molar concentration; output just the value

Known results for molecules:
[[record]]
structure_smiles_string = "O=C(O)c1cccc([C@H]2[C@H](CCNCc3ccccc3)CN[C@@H]2C(=O)O)c1"
system_tested = "GluK3 (Rattus norvegicus, UniProt P42264)"
number = 5.61

[[record]]
structure_smiles_string = "Cl.O=C(O)c1cc(-c2ccccn2)cc([C@H]2CCN[C@@H]2C(=O)O)c1"
system_tested = "GluK3 (Rattus norvegicus, UniProt P42264)"
number = 5.19

[[record]]
structure_smiles_string = "Cl.O=C(O)c1cc(-c2cncnc2)cc([C@H]2CCN[C@@H]2C(=O)O)c1"
system_tested = "GluK3 (Rattus norvegicus, UniProt P42264)"
number = 4.89

[[record]]
structure_smiles_string = "Cl.O=C(O)c1cc(-c2ccncc2)cc([C@H]2CCN[C@@H]2C(=O)O)c1"
system_tested = "GluK3 (Rattus norvegicus, UniProt P42264)"
number = 5.19

[[record]]
structure_smiles_string = "Cl.O=C(O)c1cc(-c2cnc(O)nc2)cc([C@H]2CCN[C@@H]2C(=O)O)c1"
system_tested = "GluK3 (Rattus norvegicus, UniProt P42264)"
number = 4.80

[[record]]
structure_smiles_string = "Cl.O=C(O)c1cc(Br)cc([C@H]2CCN[C@@H]2C(=O)O)c1"
system_tested = "GluK3 (Rattus norvegicus, UniProt P42264)"
number = 5.62


Prompt: Endpoint output: pKi of Cl.O=C(O)c1cc(-c2cccnc2)cc([C@H]2CCN[C@@H]2C(=O)O)c1 . Value?
Response: 5.23

Prompt: Endpoint output: pKi of Cl.O=C(O)c1cc(C(=O)O)cc([C@H]2CCN[C@@H]2C(=O)O)c1 . Value?
Response: 4.80

---

target: native NMDA receptors; experiment: Radioligand binding at native NMDA receptors; set-up: species or system rat; settings: rat synaptosomes, [3H]CGP-39653
Listing of entries alongside the reported NMDA pKi with SEM (in brackets).
Format: numeric value only, no unit, no commentary.

Known results for compounds:
[[record]]
compound = "O=C(O)c1cccc([C@H]2[C@H](CCO)CN[C@@H]2C(=O)O)c1"
number = 4.22

[[record]]
compound = "Cl.O=C(O)c1cc(NC(=O)c2ccccc2)cc([C@H]2CCN[C@@H]2C(=O)O)c1 (racemic) [(±)-5m]"
number = 5.16

[[record]]
compound = "Cl.O=C(O)c1cc(-c2ccccn2)cc([C@H]2CCN[C@@H]2C(=O)O)c1"
number = 5.42

[[record]]
compound = "Cl.O=C(O)c1cc(C(=O)O)cc([C@H]2CCN[C@@H]2C(=O)O)c1"
number = 6.32

[[record]]
compound = "Cl.O=C(O)c1cc(NS(=O)(=O)c2ccccn2)cc([C@H]2CCN[C@@H]2C(=O)O)c1 (racemic) [(±)-5l]"
number = 4.46


Prompt: Endpoint output: NMDA pKi with SEM (in brackets) of Cl.O=C(O)c1cc(-c2ccncc2)cc([C@H]2CCN[C@@H]2C(=O)O)c1 . Value?
Response: 5.76

Prompt: Endpoint output: NMDA pKi with SEM (in brackets) of O=C(O)c1ccc([C@H]2CCN[C@@H]2C(=O)O)cc1C(=O)O . Value?
Response: 5.88

Prompt: Endpoint output: NMDA pKi with SEM (in brackets) of Cl.O=C(O)c1cc(-c2cccnc2)cc([C@H]2CCN[C@@H]2C(=O)O)c1 . Value?
Response: 5.51

Prompt: Endpoint output: NMDA pKi with SEM (in brackets) of Cl.O=C(O)c1cc(-c2cncnc2)cc([C@H]2CCN[C@@H]2C(=O)O)c1 . Value?
Response: 4.98

Prompt: Endpoint output: NMDA pKi with SEM (in brackets) of Cl.O=C(O)c1cc(-c2cnn[nH]2)cc([C@H]2CCN[C@@H]2C(=O)O)c1 . Value?
Response: 6.08

Prompt: Endpoint output: NMDA pKi with SEM (in brackets) of Cl.O=C(O)c1cc(-c2cnc(O)nc2)cc([C@H]2CCN[C@@H]2C(=O)O)c1 . Value?
Response: 5.39
